Molecular target: human TRPA1 (Homo sapiens, UniProt O75762, K186N/R3C/R58T)
Construct: expressed in transfected cells; pcDNA3 control cells
Sequence (O75762 whole entry R3C/R58T/K186N): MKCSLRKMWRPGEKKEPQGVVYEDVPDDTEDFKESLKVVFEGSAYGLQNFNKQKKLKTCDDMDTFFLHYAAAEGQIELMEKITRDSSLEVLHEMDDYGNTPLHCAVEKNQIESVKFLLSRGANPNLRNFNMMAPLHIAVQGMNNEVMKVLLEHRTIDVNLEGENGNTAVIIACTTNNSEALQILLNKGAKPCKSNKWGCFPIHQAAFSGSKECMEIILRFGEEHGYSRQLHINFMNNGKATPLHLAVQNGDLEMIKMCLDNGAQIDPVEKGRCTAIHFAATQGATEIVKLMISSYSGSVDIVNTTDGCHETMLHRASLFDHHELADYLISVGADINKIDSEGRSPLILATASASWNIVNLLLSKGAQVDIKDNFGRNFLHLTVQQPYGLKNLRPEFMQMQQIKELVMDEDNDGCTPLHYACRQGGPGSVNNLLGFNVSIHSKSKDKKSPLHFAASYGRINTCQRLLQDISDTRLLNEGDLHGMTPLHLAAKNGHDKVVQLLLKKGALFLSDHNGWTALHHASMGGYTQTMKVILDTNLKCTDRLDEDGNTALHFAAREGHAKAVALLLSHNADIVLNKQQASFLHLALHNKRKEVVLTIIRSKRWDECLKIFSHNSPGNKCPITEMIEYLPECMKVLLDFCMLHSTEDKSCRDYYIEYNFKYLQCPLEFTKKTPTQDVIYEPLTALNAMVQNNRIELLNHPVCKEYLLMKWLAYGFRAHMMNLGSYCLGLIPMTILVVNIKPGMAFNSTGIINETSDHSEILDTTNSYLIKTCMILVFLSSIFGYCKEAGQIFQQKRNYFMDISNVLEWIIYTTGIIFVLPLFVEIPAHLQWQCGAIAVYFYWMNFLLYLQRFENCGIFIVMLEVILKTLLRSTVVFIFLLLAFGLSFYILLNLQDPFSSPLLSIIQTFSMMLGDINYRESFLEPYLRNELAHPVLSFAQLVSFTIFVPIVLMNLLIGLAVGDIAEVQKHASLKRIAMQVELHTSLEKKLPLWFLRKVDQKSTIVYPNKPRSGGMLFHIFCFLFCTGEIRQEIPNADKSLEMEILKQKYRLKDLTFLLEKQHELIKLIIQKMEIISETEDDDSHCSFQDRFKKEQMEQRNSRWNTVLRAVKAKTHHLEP
Assay: Intracellular calcium (Fluo-4, FLIPR) activation of TRPA1 cells by GRAS compounds;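 also: TRPA1-expressing cells, fluorescence read on a FLIPR Tetra (ex 488 nm, em 514 nm) every 2 s for 10 min after compound addition, baseline subtracted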
Assay type: cell-based
Conditions: Table 1(d); 1 mM; relative to AITC 30 μM
Would you mind telling me the reported A1 activation, % of agonist value of each entry?
Answers are plain numbers, in %.

Some compounds with recorded A1 activation, % of agonist value:
>>> measured_number("CCC(=O)C=CC1C(C)=CCCC1(C)C (stereo not shown)")
97.3
>>> measured_number("CNc1ccccc1C(=O)OCC(C)C [Isobutyl N-methyl anthranilate]")
59.73
>>> measured_number("CCCOC(C)OCCc1ccccc1 (stereo not shown) [Acetaldehyde, phenethyl propyl acetal]")
86.4

Switching to the query record.
input: For CC(=O)SCc1ccco1 [Furfurylthiol acetate] , what is its reported A1 activation, % of agonist value?
output: 75.5
